Assay: Rat pharmacokinetic study, IV single bolus
Details: male, Sprague-Dawley, in vivo, iv
Examples of molecules with documented clearance follow.
Property Label: clearance (mL/min/kg)

| Molecule | Numeric Result |
| --- | --- |
| COc1ccc([C@@H]2Sc3ccccc3N(CCN(C)C)C(=O)[C@@H]2OC(C)=O)cc1 | 97.7 |
| NC(=O)N1c2ccccc2C=Cc2ccccc21 [Carbamazepine, carbamazepine] | 18.1 |
| Cn1c(=O)c2[nH]cnc2n(C)c1=O | 1.58 |
| Nc1nnc(-c2cccc(Cl)c2Cl)c(N)n1 | 1.48 |
| Nc1nc(O)c2ncn(COC(CO)CO)c2n1 | 21.5 |
| CNS(=O)(=O)Cc1ccc2[nH]cc(CCN(C)C)c2c1 | 59.1 |
| C[C@H]1O[C@@H](O[C@H]2[C@@H](O)C[C@H](O[C@H]3[C@@H](O)C[C@H](O[C@H]4CC[C@@]5(C)[C@H](CC[C@@H]6[C@@H]5C[C@@H](O)[C@]5(C)[C@@H](C7=CC(=O)OC7)CC[C@]65O)C4)O[C@@H]3C)O[C@@H]2C)C[C@H](O)[C@@H]1O | 9.1 |

* * *

Reported half-life by item:
Experiment: Rat pharmacokinetic study, IV single bolus
Details: male, Sprague-Dawley, in vivo, iv

| Compound | half-life, h |
| --- | --- |
| CN(C)CCCC1(c2ccc(F)cc2)OCc2cc(C#N)ccc21 (stereo not drawn) | 1.02 |
| C[C@H]1O[C@@H](O[C@H]2[C@@H](O)C[C@H](O[C@H]3[C@@H](O)C[C@H](O[C@H]4CC[C@@]5(C)[C@H](CC[C@@H]6[C@@H]5C[C@@H](O)[C@]5(C)[C@@H](C7=CC(=O)OC7)CC[C@]65O)C4)O[C@@H]3C)O[C@@H]2C)C[C@H](O)[C@@H]1O | 1.3 |
| NC(=O)N1c2ccccc2C=Cc2ccccc21 [Carbamazepine, carbamazepine] | 0.993 |

* * *

Listed compounds paired with reported Papp at 2 h, 1 μmol/L
Test: Bidirectional permeability in parental MDCK cells
Format: in vitro ADME, Canine
Conditions: dog, MDCK
Property Label: Papp at 2 h, 1 μmol/L (×10⁻⁶ cm/s)

| Compound | Property Label | Numeric Result |
| --- | --- | --- |
| CN/C(=N/CCSCc1nc[nH]c1C)NC#N [Cimetidine] | Papp at 2 h, 1 μmol/L | 1.67 |
| CC(C)NCC(O)COc1cccc2ccccc12 (stereo not drawn) [Propranolol, propranolol] | Papp at 2 h, 1 μmol/L | 11 |
| NC(=O)N1c2ccccc2C=Cc2ccccc21 [Carbamazepine, carbamazepine] | Papp at 2 h, 1 μmol/L | 27.5 |
| CN(C)CCCC1(c2ccc(F)cc2)OCc2cc(C#N)ccc21 (stereo not drawn) [Citalopram, citalopram] | Papp at 2 h, 1 μmol/L | 15 |
| CC(=O)Nc1ccc(O)cc1 [Acetaminophen] | Papp at 2 h, 1 μmol/L | 15.5 |
| Nc1nc2[nH]cc(CCc3ccc(C(=O)N[C@@H](CCC(=O)O)C(=O)O)cc3)c2c(=O)[nH]1 [Pemetrexed, pemetrexed] | Papp at 2 h, 1 μmol/L | 0.623 |
| COc1ccc([C@@H]2Sc3ccccc3N(CCN(C)C)C(=O)[C@@H]2OC(C)=O)cc1 [Diltiazem, diltiazem] | Papp at 2 h, 1 μmol/L | 18.4 |
| C[C@H]1O[C@@H](O[C@H]2[C@@H](O)C[C@H](O[C@H]3[C@@H](O)C[C@H](O[C@H]4CC[C@@]5(C)[C@H](CC[C@@H]6[C@@H]5C[C@@H](O)[C@]5(C)[C@@H](C7=CC(=O)OC7)CC[C@]65O)C4)O[C@@H]3C)O[C@@H]2C)C[C@H](O)[C@@H]1O [Digoxin, digoxin] | Papp at 2 h, 1 μmol/L | 2.48 |
| CNS(=O)(=O)Cc1ccc2[nH]cc(CCN(C)C)c2c1 [Sumatriptan, sumatriptan] | Papp at 2 h, 1 μmol/L | 1.64 |

* * *

Experiment: Rat pharmacokinetic study, IV single bolus
Conditions: male, Sprague-Dawley, in vivo, iv
The following compounds are listed with their measured log10 clearance values.
Property Label: log10 clearance (log10 of the value in mL/min/kg)

| Compound | log10 clearance |
| --- | --- |
| CC(C)NCC(O)COc1cccc2ccccc12 (stereo not drawn) [Propranolol, propranolol] | 1.92 |
| CN/C(=N/CCSCc1nc[nH]c1C)NC#N [Cimetidine] | 1.73 |
| CN(C)CCCC1(c2ccc(F)cc2)OCc2cc(C#N)ccc21 (stereo not drawn) [Citalopram, citalopram] | 1.98 |
| Cc1cc(=O)n(-c2ccccc2)n1C [Antipyrine] | 0.68 |
| Nc1nc2[nH]cc(CCc3ccc(C(=O)N[C@@H](CCC(=O)O)C(=O)O)cc3)c2c(=O)[nH]1 [Pemetrexed, pemetrexed] | 1.15 |
| CC1COc2c(N3CCN(C)CC3)c(F)cc3c(=O)c(C(=O)O)cn1c23 (stereo not drawn) [Ofloxacin, ofloxacin] | 1.51 |

* * *

Experiment: Rat brain and blood microdialysis at steady state
Conditions: male, Sprague-Dawley, rat, in vivo, iv, C m,brain, steady‐state unbound concentration in brain (right striatum), microdialysis, IV infusion, mean ± SD

| Molecule | concentration at 6 h [nM] |
| --- | --- |
| NC(=O)N1c2ccccc2C=Cc2ccccc21 [Carbamazepine, carbamazepine] | 1370 |
| CN/C(=N/CCSCc1nc[nH]c1C)NC#N | 1420 |
| Cn1c(=O)c2[nH]cnc2n(C)c1=O | 4520 |
| CC(=O)Nc1ccc(O)cc1 | 3450 |
| CNS(=O)(=O)Cc1ccc2[nH]cc(CCN(C)C)c2c1 | 845 |
| CC1COc2c(N3CCN(C)CC3)c(F)cc3c(=O)c(C(=O)O)cn1c23 (stereo not drawn) | 678 |
| C=C[C@H]1C[N@@]2CC[C@H]1C[C@@H]2[C@@H](O)c1ccnc2ccc(OC)cc12 | 552 |
| Nc1nc(O)c2ncn(COC(CO)CO)c2n1 | 2230 |
| CC(C)NCC(O)COc1cccc2ccccc12 (stereo not drawn) | 1490 |

* * *

Test: Bidirectional permeability and efflux ratio in Caco‐2 cells
Assay type: in vitro ADME, human
Conditions: human, Caco-2
Here, each record is paired with measured Papp B→A at 2 h, 5 μmol/L data.
Property Label: Papp B→A at 2 h, 5 μmol/L

| Compound | Result |
| --- | --- |
| COc1ccc([C@@H]2Sc3ccccc3N(CCN(C)C)C(=O)[C@@H]2OC(C)=O)cc1 | 20.1 ×10⁻⁶ cm/s |
| CC(C)NCC(O)COc1cccc2ccccc12 (stereo not drawn) | 13.8 ×10⁻⁶ cm/s |
| CC(=O)Nc1ccc(O)cc1 | 19.6 ×10⁻⁶ cm/s |
| Cc1cc(=O)n(-c2ccccc2)n1C [Antipyrine] | 25.1 ×10⁻⁶ cm/s |
| CN(C)CCCC1(c2ccc(F)cc2)OCc2cc(C#N)ccc21 (stereo not drawn) | 17.4 ×10⁻⁶ cm/s |
| C[C@H]1O[C@@H](O[C@H]2[C@@H](O)C[C@H](O[C@H]3[C@@H](O)C[C@H](O[C@H]4CC[C@@]5(C)[C@H](CC[C@@H]6[C@@H]5C[C@@H](O)[C@]5(C)[C@@H](C7=CC(=O)OC7)CC[C@]65O)C4)O[C@@H]3C)O[C@@H]2C)C[C@H](O)[C@@H]1O | 23 ×10⁻⁶ cm/s |

* * *

System: efflux transporters (eg, P‐gp, BCRP, MRPs)
Test: Classification as efflux transporter substrate
Details: Yes/No

| Molecule | Assay Target | Efflux transporter substrate |
| --- | --- | --- |
| COc1ccc([C@@H]2Sc3ccccc3N(CCN(C)C)C(=O)[C@@H]2OC(C)=O)cc1 | efflux transporters (eg, P‐gp, BCRP, MRPs) | No |
| CC(C)NCC(O)COc1cccc2ccccc12 (stereo not drawn) | efflux transporters (eg, P‐gp, BCRP, MRPs) | No |
| Cc1c(N)c(=O)n(-c2ccccc2)n1C [4‐Aminoantipyrine, 4‐aminoantipyrine] | efflux transporters (eg, P‐gp, BCRP, MRPs) | No |

* * *

Test system: Caco‐2 cell line
Assay: Bidirectional permeability and efflux ratio in Caco‐2 cells
Assay type: in vitro ADME, human
Conditions: Caco‐2 cell line, P app(B–A)/P app(A–B)

| Compound | Efflux ratio |
| --- | --- |
| CN(C)CCCC1(c2ccc(F)cc2)OCc2cc(C#N)ccc21 (stereo not shown) | 1.09 |
| Cc1c(N)c(=O)n(-c2ccccc2)n1C [4‐Aminoantipyrine, 4‐aminoantipyrine] | 0.713 |
| Nc1nc2[nH]cc(CCc3ccc(C(=O)N[C@@H](CCC(=O)O)C(=O)O)cc3)c2c(=O)[nH]1 | 1.81 |
| NC(=O)N1c2ccccc2C=Cc2ccccc21 [Carbamazepine, carbamazepine] | 0.662 |
